Origin of measurements: paper PMC6044741

# System Name: human RORγ hybrids of both isoforms 1 and 2 (Homo sapiens)
# Sequence (P51449 259-518): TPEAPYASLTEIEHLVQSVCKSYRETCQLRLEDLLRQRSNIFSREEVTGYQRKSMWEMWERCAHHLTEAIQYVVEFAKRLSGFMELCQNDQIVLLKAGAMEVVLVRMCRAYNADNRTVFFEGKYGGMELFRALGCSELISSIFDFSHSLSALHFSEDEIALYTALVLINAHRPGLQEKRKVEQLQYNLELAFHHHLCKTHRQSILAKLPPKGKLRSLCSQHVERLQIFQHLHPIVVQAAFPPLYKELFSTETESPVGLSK
# Protocol: Human RAR-related Orphan Receptor Gamma Reporter Assay System
# Type: cell-based
# Measurement Conditions: result in words
Readout Type: RORγt activity in experimental testing (active / inactive)

INSERT INTO assay_data (compound, system_name, result) VALUES
  ('O=C(O)c1ccc(NC(=O)c2cccc(N3C(=O)C4C5c6ccccc6C(c6ccccc65)C4C3=O)c2)cc1 (stereo not drawn)', 'human RORγ hybrids of both isoforms 1 and 2 (Homo sapiens)', 'inactive'),
  ('Cc1ccccc1-c1cc(C(=O)N2CCN(c3cccc(C(F)(F)F)c3)CC2)c2ccccc2n1', 'human RORγ hybrids of both isoforms 1 and 2 (Homo sapiens)', 'less active'),
  ('O=C(COC(=O)c1cccc(N2C(=O)C3C4c5ccccc5C(c5ccccc54)C3C2=O)c1)c1ccc(Cl)cc1 (stereo not drawn)', 'human RORγ hybrids of both isoforms 1 and 2 (Homo sapiens)', 'activity'),
  ('Cc1ccc(-c2cc(C(=O)N3CCN(c4cccc(C(F)(F)F)c4)CC3)c3ccccc3n2)o1', 'human RORγ hybrids of both isoforms 1 and 2 (Homo sapiens)', 'less active'),
  ('O=C(Oc1ccc(N2C(=O)C3C4c5ccccc5C(c5ccccc54)C3C2=O)cc1)c1cccc([N+](=O)[O-])c1 (stereo not drawn)', 'human RORγ hybrids of both isoforms 1 and 2 (Homo sapiens)', 'inactive'),
  ('O=C(COC(=O)c1cccc(N2C(=O)C3C4c5ccccc5C(c5ccccc54)C3C2=O)c1)c1ccccc1 (stereo not drawn)', 'human RORγ hybrids of both isoforms 1 and 2 (Homo sapiens)', 'activity');
